Entry source: ChEMBL document CHEMBL2413025

- systemName: Acetylcholinesterase (Homo sapiens, UniProt P22303)
- Sequence (P22303 whole entry): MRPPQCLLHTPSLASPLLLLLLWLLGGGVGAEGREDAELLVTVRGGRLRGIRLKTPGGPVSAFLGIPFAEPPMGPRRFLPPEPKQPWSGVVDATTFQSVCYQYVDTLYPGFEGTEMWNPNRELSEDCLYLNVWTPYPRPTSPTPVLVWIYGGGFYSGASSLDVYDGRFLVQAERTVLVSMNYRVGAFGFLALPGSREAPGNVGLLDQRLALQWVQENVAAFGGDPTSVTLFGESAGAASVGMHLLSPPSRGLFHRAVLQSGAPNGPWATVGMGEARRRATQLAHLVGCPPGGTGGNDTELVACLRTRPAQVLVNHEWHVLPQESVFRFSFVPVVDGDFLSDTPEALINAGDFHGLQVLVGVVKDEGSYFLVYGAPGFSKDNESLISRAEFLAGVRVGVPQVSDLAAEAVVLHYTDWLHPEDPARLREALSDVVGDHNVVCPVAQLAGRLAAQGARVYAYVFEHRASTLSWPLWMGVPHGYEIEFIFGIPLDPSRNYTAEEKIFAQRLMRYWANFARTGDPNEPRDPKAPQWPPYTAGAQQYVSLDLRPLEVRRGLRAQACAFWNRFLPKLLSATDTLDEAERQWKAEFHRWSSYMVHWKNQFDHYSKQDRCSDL
- testMethodNotes: Inhibition of recombinant human AChE using acetylthiocholine iodide as substrate preincubated for 5 mins before substrate addition by Ellman's method
Threshold 8 µM. IC50 below it: 1.0. IC50 at it or above: 0.0.

A selection of reference data follows.
# smilesString, label
rows = [
    ("Cc1ccc2[nH]c(-c3ccc(O)cc3)nc2c1", 0.0),
    ("CN(C)CCOc1ccc(-c2nc3ccccc3[nH]2)cc1", 0.0),
    ("Clc1ccc2nc(-c3ccc(OCCN4CCCCC4)cc3)[nH]c2c1", 1.0),
    ("CCN(CC)CCOc1ccc(-c2nc3ccccc3[nH]2)cc1", 0.0),
    ("Oc1ccc(-c2nc3cc(Cl)ccc3[nH]2)cc1", 0.0),
]

Enquiry: Say whether its IC50 is strictly beneath 8 µM. Entry: c1ccc2[nH]c(-c3ccc(OCCN4CCCCC4)cc3)nc2c1
Return: 1.0

Enquiry: Say whether its IC50 is strictly beneath 8 µM. Entry: c1ccc2[nH]c(-c3ccc(OCCN4CCOCC4)cc3)nc2c1
Return: 0.0
